Reference source for all entries: the supplement of paper PMC5998384

system: HeLa Kyoto; assay: solubility in G1/S (NP-40 vs SDS abundance) (log2 ratio); higher = more soluble; settings: cell cycle stage: G1/S
metricName: solubility in G1/S (log2)
Note: the reply should be a number with no unit written.

## Task Would you kindly share the measured solubility in G1/S (log2) for MADDQGCIEEQGVEDSANEDSVDAKPDRSSFVPSLFSKKKKNVTMRSIKTTRDRVPTYQYNMNFEKLGKCIIINNKNFDKVTGMGVRNGTDKDAEALFKCFRSLGFDVIVYNDCSCAKMQDLLKKASEEDHTNAACFACILLSHGEENVIYGKDGVTPIKDLTAHFRGDRCKTLLEKPKLFFIQACRGTELDDGIQADSGPINDTDANPRYKIPVEADFLFAYSTVPGYYSWRSPGRGSWFVQALCSILEEHGKDLEIMQILTRVNDRVARHFESQSDDPHFHEKKQIPCVVSMLTKELYFSQ [CASP7] ?
## Result 0.0897

## Task Would you kindly share the measured solubility in G1/S (log2) for MAPQNLSTFCLLLLYLIGAVIAGRDFYKILGVPRSASIKDIKKAYRKLALQLHPDRNPDDPQAQEKFQDLGAAYEVLSDSEKRKQYDTYGEEGLKDGHQSSHGDIFSHFFGDFGFMFGGTPRQQDRNIPRGSDIIVDLEVTLEEVYAGNFVEVVRNKPVARQAPGKRKCNCRQEMRTTQLGPGRFQMTQEVVCDECPNVKLVNEERTLEVEIEPGVRDGMEYPFIGEGEPHVDGEPGDLRFRIKVVKHPIFERRGDDLYTNVTISLVESLVGFEMDITHLDGHKVHISRDKITRPGAKLWKKGEGLPNFDNNNIKGSLIITFDVDFPKEQLTEEAREGIKQLLKQGSVQKVYNGLQGY [DNAJB11] ?
## Result 0.337

----------
tested on: HeLa Kyoto; assay: melting temperature (median over replicates), in situ; higher = more thermally stable; conditions: cell cycle stage: G1/S
metricName: melting temperature (°C)
Provide only the numeric value, understood in °C.

## Task Would you kindly share the measured melting temperature for MAVTALAARTWLGVWGVRTMQARGFGSDQSENVDRGAGSIREAGGAFGKREQAEEERYFRAQSREQLAALKKHHEEEIVHHKKEIERLQKEIERHKQKIKMLKHDD [ATPIF1] ?
## Result 56.8

## Task Would you kindly share the measured melting temperature for MEQLSSANTRFALDLFLALSENNPAGNIFISPFSISSAMAMVFLGTRGNTAAQLSKTFHFNTVEEVHSRFQSLNADINKRGASYILKLANRLYGEKTYNFLPEFLVSTQKTYGADLASVDFQHASEDARKTINQWVKGQTEGKIPELLASGMVDNMTKLVLVNAIYFKGNWKDKFMKEATTNAPFRLNKKDRKTVKMMYQKKKFAYGYIEDLKCRVLELPYQGEELSMVILLPDDIEDESTGLKKIEEQLTLEKLHEWTKPENLDFIEVNVSLPRFKLEESYTLNSDLARLGVQDLFNSSKADLSGMSGARDIFISKIVHKSFVEVNEEGTEAAAATAGIATFCMLMPEENFTADHPFLFFIRHNSSGSILFLGRFSSP [SERPINB1] ?
## Result 53.2

## Task Would you kindly share the measured melting temperature for MAGSVADSDAVVKLDDGHLNNSLSSPVQADVYFPRLIVPFCGHIKGGMRPGKKVLVMGIVDLNPESFAISLTCGDSEDPPADVAIELKAVFTDRQLLRNSCISGERGEEQSAIPYFPFIPDQPFRVEILCEHPRFRVFVDGHQLFDFYHRIQTLSAIDTIKINGDLQITKLG [LGALSL] ?
## Result 53.3

## Task Would you kindly share the measured melting temperature for MAEPDPSHPLETQAGKVQEAQDSDSDSEGGAAGGEADMDFLRNLFSQTLSLGSQKERLLDELTLEGVARYMQSERCRRVICLVGAGISTSAGIPDFRSPSTGLYDNLEKYHLPYPEAIFEISYFKKHPEPFFALAKELYPGQFKPTICHYFMRLLKDKGLLLRCYTQNIDTLERIAGLEQEDLVEAHGTFYTSHCVSASCRHEYPLSWMKEKIFSEVTPKCEDCQSLVKPDIVFFGESLPARFFSCMQSDFLKVDLLLVMGTSLQVQPFASLISKAPLSTPRLLINKEKAGQSDPFLGMIMGLGGGMDFDSKKAYRDVAWLGECDQGCLALAELLGWKKELEDLVRREHASIDAQSGAGVPNPSTSASPKKSPPPAKDEARTTEREKPQ [SIRT2] ?
## Result 51.4

## Task Would you kindly share the measured melting temperature for MDDQGCPRCKTTKYRNPSLKLMVNVCGHTLCESCVDLLFVRGAGNCPECGTPLRKSNFRVQLFEDPTVDKEVEIRKKVLKIYNKREEDFPSLREYNDFLEEVEEIVFNLTNNVDLDNTKKKMEIYQKENKDVIQKNKLKLTREQEELEEALEVERQENEQRRLFIQKEEQLQQILKRKNKQAFLDELESSDLPVALLLAQHKDRSTQLEMQLEKPKPVKPVTFSTGIKMGQHISLAPIHKLEEALYEYQPLQIETYGPHVPELEMLGRLGYLNHVRAASPQDLAGGYTSSLACHRALQDAFSGLFWQPS [MNAT1] ?
## Result 52.1

----------
Assign thermal stability score to each entry below.
test system: HeLa Kyoto; experiment: thermal stability score vs G1/S (z-score of summed log2 fold changes over temperatures); higher = more thermally stable than in G1/S; conditions: cell cycle stage: early G1 (4.5 h after nocodazole release)
Note: the reply should be a number with no unit written.

## Task Would you kindly share the measured thermal stability score for MELSAVGERVFAAEALLKRRIRKGRMEYLVKWKGWSQKYSTWEPEENILDARLLAAFEEREREMELYGPKKRGPKPKTFLLKAQAKAKAKTYEFRSDSARGIRIPYPGRSPQDLASTSRAREGLRNMGLSPPASSTSTSSTCRAEAPRDRDRDRDRDRERDRERERERERERERERERERGTSRVDDKPSSPGDSSKKRGPKPRKELPDPSQRPLGEPSAGLGEYLKGRKLDDTPSGAGKFPAGHSVIQLARRQDSDLVQCGVTSPSSAEATGKLAVDTFPARVIKHRAAFLEAKGQGALDPNGTRVRHGSGPPSSGGGLYRDMGAQGGRPSLIARIPVARILGDPEEESWSPSLTNLEKVVVTDVTSNFLTVTIKESNTDQGFFKEKR [CBX8] ?
## Result 2.83

## Task Would you kindly share the measured thermal stability score for MSQTAMSETYDFLFKFLVIGNAGTGKSCLLHQFIEKKFKDDSNHTIGVEFGSKIINVGGKYVKLQIWDTAGQERFRSVTRSYYRGAAGALLVYDITSRETYNALTNWLTDARMLASQNIVIILCGNKKDLDADREVTFLEASRFAQENELMFLETSALTGENVEEAFVQCARKILNKIESGELDPERMGSGIQYGDAALRQLRSPRRAQAPNAQECGC [RAB4A] ?
## Result -3.03

## Task Would you kindly share the measured thermal stability score for HNRNPAB ?
## Result -0.524

## Task Would you kindly share the measured thermal stability score for MASSEQAEQPSQPSSTPGSENVLPREPLIATAVKFLQNSRVRQSPLATRRAFLKKKGLTDEEIDMAFQQSGTAADEPSSLGPATQVVPVQPPHLISQPYSPAGSRWRDYGALAIIMAGIAFGFHQLYKKYLLPLILGGREDRKQLERMEAGLSELSGSVAQTVTQLQTTLASVQELLIQQQQKIQELAHELAAAKATTSTNWILESQNINELKSEINSLKGLLLNRRQFPPSPSAPKIPSWQIPVKSPSPSSPAAVNHHSSSDISPVSNESTSSSPGKEGHSPEGSTVTYHLLGPQEEGEGVVDVKGQVRMEVQGEEEKREDKEDEEDEEDDDVSHVDEEDCLGVQREDRRGGDGQINEQVEKLRRPEGASNESERD [PEX14] ?
## Result 0.978

## Task Would you kindly share the measured thermal stability score for MFRAAAPGQLRRAASLLRFQSTLVIAEHANDSLAPITLNTITAATRLGGEVSCLVAGTKCDKVAQDLCKVAGIAKVLVAQHDVYKGLLPEELTPLILATQKQFNYTHICAGASAFGKNLLPRVAAKLEVAPISDIIAIKSPDTFVRTIYAGNALCTVKCDEKVKVFSVRGTSFDAAATSGGSASSEKASSTSPVEISEWLDQKLTKSDRPELTGAKVVVSGGRGLKSGENFKLLYDLADQLHAAVGASRAAVDAGFVPNDMQVGQTGKIVAPELYIAVGISGAIQHLAGMKDSKTIVAINKDPEAPIFQVADYGIVADLFKVVPEMTEILKKK [ETFA] ?
## Result -3.45

## Task Would you kindly share the measured thermal stability score for MVSWMISRAVVLVFGMLYPAYYSYKAVKTKNVKEYVRWMMYWIVFALYTVIETVADQTVAWFPLYYELKIAFVIWLLSPYTKGASLIYRKFLHPLLSSKEREIDDYIVQAKERGYETMVNFGRQGLNLAATAAVTAAVKSQGAITERLRSFSMHDLTTIQGDEPVGQRPYQPLPEAKKKSKPAPSESAGYGIPLKDGDEKTDEEAEGPYSDNEMLTHKGLRRSQSMKSVKTTKGRKEVRYGSLKYKVKKRPQVYF [REEP3] ?
## Result -1.24
